# study_system: IR (Homo sapiens)
# Construct: purchased Millipore 14-803
# Sequence (P06213 28-1382): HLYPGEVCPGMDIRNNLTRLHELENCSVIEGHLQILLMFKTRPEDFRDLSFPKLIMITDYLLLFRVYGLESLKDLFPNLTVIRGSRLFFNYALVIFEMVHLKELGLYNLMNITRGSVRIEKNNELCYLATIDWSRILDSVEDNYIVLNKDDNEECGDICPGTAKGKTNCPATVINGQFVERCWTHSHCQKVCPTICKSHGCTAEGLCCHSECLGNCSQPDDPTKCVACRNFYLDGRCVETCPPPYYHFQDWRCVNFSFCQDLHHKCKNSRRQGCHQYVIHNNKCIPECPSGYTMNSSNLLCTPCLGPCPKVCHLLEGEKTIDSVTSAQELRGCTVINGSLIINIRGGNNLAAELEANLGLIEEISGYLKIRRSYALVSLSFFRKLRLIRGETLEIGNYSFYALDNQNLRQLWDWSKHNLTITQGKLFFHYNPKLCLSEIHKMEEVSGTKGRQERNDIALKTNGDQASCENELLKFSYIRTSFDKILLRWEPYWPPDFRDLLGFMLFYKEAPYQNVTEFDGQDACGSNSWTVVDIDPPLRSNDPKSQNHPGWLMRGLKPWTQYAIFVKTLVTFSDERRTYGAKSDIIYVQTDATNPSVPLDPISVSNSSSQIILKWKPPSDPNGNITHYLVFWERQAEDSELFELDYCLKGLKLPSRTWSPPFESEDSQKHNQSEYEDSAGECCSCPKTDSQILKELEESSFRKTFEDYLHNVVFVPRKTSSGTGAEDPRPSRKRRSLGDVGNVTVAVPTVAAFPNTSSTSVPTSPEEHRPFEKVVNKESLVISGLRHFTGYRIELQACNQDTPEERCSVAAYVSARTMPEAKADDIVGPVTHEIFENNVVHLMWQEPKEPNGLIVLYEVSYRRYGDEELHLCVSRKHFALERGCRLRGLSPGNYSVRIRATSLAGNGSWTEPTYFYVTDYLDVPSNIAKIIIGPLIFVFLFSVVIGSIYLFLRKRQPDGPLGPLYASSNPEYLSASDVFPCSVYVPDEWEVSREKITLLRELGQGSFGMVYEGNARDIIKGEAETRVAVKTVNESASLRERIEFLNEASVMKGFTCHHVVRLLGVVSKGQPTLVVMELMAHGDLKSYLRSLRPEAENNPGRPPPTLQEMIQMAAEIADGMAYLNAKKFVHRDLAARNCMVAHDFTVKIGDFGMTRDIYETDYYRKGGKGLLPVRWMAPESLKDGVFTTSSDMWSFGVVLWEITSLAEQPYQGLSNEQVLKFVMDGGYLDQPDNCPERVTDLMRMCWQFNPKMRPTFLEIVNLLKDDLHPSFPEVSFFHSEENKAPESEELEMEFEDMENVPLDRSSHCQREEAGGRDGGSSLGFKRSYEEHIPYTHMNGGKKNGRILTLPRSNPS
# assay_protocol: In vitro IR enzymatic assay (ADP-Glo kinase assay)
# Type: biochemical
# condition_info: activated IR, 30 nM, N2; 0.03 µM
metric: % Inh @ 30 nM (N2) (%)

Sample records with % Inh @ 30 nM (N2):
Asked: Report % Inh @ 30 nM (N2) under test system IR (Homo sapiens) for O=C(Nc1ccc(F)nc1)C1C(O)CCN1c1nc2c(c(Nc3cc(C4CC4)[nH]n3)n1)CCC2 (single isomer, unassigned) [Compound 11b] .
Given back: 9

Asked: Report % Inh @ 30 nM (N2) under test system IR (Homo sapiens) for O=C(Nc1ccc(F)nc1)C1CCCN1c1nc2c(c(Nc3cc(C4CCCC4)[nH]n3)n1)CCC2 (single isomer, unassigned) [Compound 4a] .
Given back: −2

Asked: Report % Inh @ 30 nM (N2) under test system IR (Homo sapiens) for O=C(Nc1ccc(F)nc1)C1CCCN1c1nc2c(c(Nc3cc(C4CCCC4)[nH]n3)n1)CCCC2 (single isomer, unassigned) [Compound 15a] .
Given back: 4

[I] CC(C)c1cc(Nc2nc(N3CCCCC3C(=O)Nc3ccc(F)nc3)nc3c2CCC3)n[nH]1 (single isomer, unassigned) [Compound 16b]
[II] O=C(Nc1ccc(F)nc1)C1CCCN1c1nc2c(c(Nc3cc(C4CCCC4)[nH]n3)n1)CCC2 (single isomer, unassigned) [Compound 4b]
[III] CC(C)c1cc(Nc2nc(N3CCCCC3C(=O)Nc3ccc(F)nc3)nc3c2CCC3)n[nH]1 (single isomer, unassigned) [Compound 16a]
Asked: Please put the entries in order of rising % Inh @ 30 nM (N2). Respond with the label ranking, as requested.
Given back: III, I, II
(III: −7%, I: 23%, II: 33%)

----------
# Tested on: Akt phosphorylation induced by IGF-1R
# assay_protocol: Western blot analysis of Akt phosphorylation induced by IGF-1 in HT-29 cells
# Format: cell-based, Human
# condition_info: 1 nM compound, HT-29 cells, IGF-1
# Description: Inhibition of Akt phosphorylation induced by IGF-1R was studied by western blot analysis. Human colon carcinoma HT-29 cells were seeded at a density of 8×10^4 cells/well in a 24-well plate and grown in DME/F12 media containing 10% FBS for 24 h. […] Lysed cells were centrifuged at 13,000 rpm for 15 min and the protein concentration soluble fraction (supernatant) of each sample was determined using a BCA protein assay (Pierce).
metric: Levels of phosphorylated AKT in treated cells (pAKT/actin)
Reply: number alone, nothing else.

Asked: Give the reported value of Levels of phosphorylated AKT in treated cells (pAKT/actin) for this record: O=C(Nc1ccc(F)nc1)C1CC(O)CN1c1nc2c(c(Nc3cc(C4CC4)[nH]n3)n1)CCC2 (racemic) [Compound 10a]
Given back: 0.54

New cases:
Asked: Give the reported value of Levels of phosphorylated AKT in treated cells (pAKT/actin) for this record: O=C(Nc1ccc(F)nc1)C1CCCN1c1nc2c(c(Nc3cc(C4CCCC4)[nH]n3)n1)CCCC2 (single isomer, unassigned) [Compound 15b]
Given back: 0.58

Asked: Give the reported value of Levels of phosphorylated AKT in treated cells (pAKT/actin) for this record: O=C(Nc1cccnc1)C1CCCN1c1nc2c(c(Nc3cc(C4CC4)[nH]n3)n1)CCC2 (single isomer, unassigned) [Compound 3a]
Given back: 1.68
